Just for reference, PubChem BioAssay (NCI) is where these values come from.

# Tested on: A549 NSCLC
# experiment: NCI tumour cell line growth inhibition, 48 h
endpointLabel: TGI

Past entries and their recorded results:
# input compound: C=C1C(=O)O[C@@H]2/C=C(C)/C=C\[C@@H]3O[C@@]3(C)C[C@@H](O)C12 (stereo partly drawn) ; wanted: its TGI
> 100 µM

Please report the recorded TGI for "CCOC(=O)c1cc(-c2ccc(OC)cc2)c([N+](=O)[O-])n1C" .
> 10 µM

Fill in the blank: the reported TGI of "Cc1ccc2nc(-c3ccccc3)cc(=O)n2c1" is ____.
> 100 µM

# lookup: TGI of "CC(=O)OCCOCNC(=S)N/N=C/c1ccc([N+](=O)[O-])o1"
> 100 µM

// TGI lookup, key: "CSC(=O)c1sc(SC)[n+](-c2ccccc2)c1O"
> 100 µM

# lookup: TGI of "C/C(=N\NC(N)=S)c1ccc2c(c1)Sc1ccccc1O2"
13.5 µM

Further cases:
Any idea what TGI was measured for "COc1ccc(/C=C/COC(C)=O)cc1OC" ?
> 100 µM

Quick one: TGI of C=C(C)C12OC1[C@@]1(C)C(=CC2=O)CCC(O)[C@@H]1C (stereo partly drawn) ?
20.3 µM

Reported TGI, compound COCOC1/C=C/CCCCC(=O)C(C)C#CC1 (stereo not drawn) : ____
30.1 µM

---

# System: HOP-18 NSCLC
# experiment: NCI tumour cell line growth inhibition, 48 h
endpointLabel: TGI

# TGI lookup, item "CCOc1ccc(NC2=CC(=O)C(=O)c3ccccc32)cc1"
4.61 µM

What TGI value was documented for this compound, CN(C)CC1CCCC/C1=N/O (configuration not stated) ?
> 100 µM

// lookup TGI for CCC(C)SC1SCC2C(=O)N(C)C3(CC3C)C(=O)OCC(NC(=O)c3nc4ccccc4cc3O)C(=O)NC(C)C(=O)N(C)C1C(=O)N(C)C1(CC1C)C(=O)OCC(NC(=O)c1nc3ccccc3cc1O)C(=O)NC(C)C(=O)N2C (configuration not stated)
24.1 µM

What does the data say about its TGI? Entry: CCOC(=O)C1=C(C)N(NC(=O)Nc2ccccc2)C2(N)N(NC(=O)Nc3ccccc3)C(C)=C(C(=O)OCC)C12C(=O)OCC (configuration not stated)
54.6 µM

Value lookup for TGI; key = "N#CCCC[Si]12OCCN(CCO1)CCO2"
> 100 µM

Look up TGI for this compound: O=C1C(C(Nc2ccccc2)c2ccccc2)=C([O-])c2ccccc21.O=C1C(C(Nc2ccccc2)c2ccccc2)=C([O-])c2ccccc21.[Cu+2] (configuration not stated)
> 100 µM

Next:
I would be grateful if you could share the reported TGI for CCOC(=O)C1Sc2ccccc2N=C1C (configuration not stated) .
> 100 µM

Report TGI for "C/C(CN1C(=O)c2ccccc2C1=O)=N\NS(=O)(=O)c1ccc(Cl)cc1" please.
> 100 µM

Dear colleague, I am looking for the recorded TGI of the following compound: COc1cc(C2C(Cl)C(=O)N2n2cnc3ccccc3c2=O)ccc1O (configuration not stated)
> 100 µM

May I ask what TGI has been recorded for CN(C)CC1CCC/C1=N/OC(=O)c1ccccc1 (configuration not stated) ?
> 100 µM

Look up TGI for this compound: S=P1(Oc2ccccc2)NNP2(=NP(N3CC3)(N3CC3)=NP(N3CC3)(N3CC3)=N2)NN1 (configuration not stated)
> 100 µM

Item O=C(NC1C=CCC2C(=O)N(c3ccccc3)C(=O)C12)OCc1ccccc1 (configuration not stated) has what recorded TGI?
> 100 µM

---

# Tested on: U251 CNS
endpointLabel: GI50

Dear colleague, I am looking for the recorded GI50 of the following compound: "c1ccc(Nc2ncc(-c3ccccc3)o2)cc1"
> 25000 nM

// GI50 lookup, key: "c1ccc(-c2n(Cc3ccc4ccccc4n3)cc[n+]2Cc2ccc3ccccc3c2)cc1"
923 nM

---
GI50 lookup needed for "Cc1ccc(-c2nc(N3CCNCC3)c3oc(-c4ccc(C)cc4)nc3n2)cc1" , thanks.
1830 nM

Given CCCCCCCCCCSC(=N)N (tested in a mixture with another compound) , state its recorded GI50.
1770 nM

I'd like to know its GI50. The compound in question is O=C1OCC2=C1C(c1cccc(Br)c1)c1cc3c(cc1N2CCO)OCCO3 (centres undefined)
59.6 nM

---

# Tested on: HOP-62 NSCLC
# experiment: NCI tumour cell line growth inhibition, 48 h; in the data active = GI50 below about 0.43 µM; inactive = the rest
Pick one and only one: YES for active, NO for inactive

For O=C1OCC2=C1C(c1cccc(Br)c1)c1cc3c(cc1N2CCO)OCCO3 (stereo not given) , what call appears in the results of this test?
YES

Others:
Recorded test call requested for "Cc1cc(Nc2ccc(C)c(Cl)c2)n2nc(C(F)(F)F)nc2n1"
NO

How was COc1ccc(C(c2cc(OC)c(OC)c(OC)c2)n2cncn2)cc1O (stereo not given) classified in this test?
NO

For this molecule, state the assay outcome: "O=C(Nc1cccc(C(F)(F)F)c1)Nc1cccc(C(F)(F)F)c1"
NO

Query: recorded result category for "CCOC(=O)n1cc(C2=C(c3ccc(OC)c(OC)c3)COC2=O)c2ccccc21" in this test
YES

What did the test return for "Fc1cc(-c2nnc3n2N=C(c2ccc(Cl)cc2)CS3)c(Cl)cc1Cl" ?
NO

Please state the recorded outcome for this molecule: "COC(=O)c1cc2oc(/C=C3/SC(=S)N(NC(C)=O)C3=O)cc2n1C"
NO

Tell me the assay call for "O=C1c2c(F)c(F)c(F)c(F)c2C(=O)N1c1ccc(F)cc1F" please.
NO

Which outcome did this test record for the molecule "CCCCCCOc1ccc(/C=N/Nc2cc(C)nc3ccc(Cl)cc23)cc1" ?
NO

What did the test return for "Cc1cc2c(cc1C)[n+](=O)c(C(=O)c1ccccc1)c(C(F)F)n2[O-]" ?
NO

---

# Test system: OVCAR-4 ovarian
# experiment: NCI tumour cell line growth inhibition, 48 h
Decision: TGI compared against 30 µM; not below it gives Fulfilled, below it gives Not fulfilled.

Examples from the recorded data:
I'd appreciate it if you could say whether "c1ccc(-c2n(Cc3ccc4ccccc4n3)cc[n+]2Cc2ccc3ccccc3c2)cc1" has TGI at least equal to 30 µM.
Not fulfilled

Assess whether reported TGI for "Fc1cc(-c2nnc3n2N=C(c2ccc(Cl)cc2)CS3)c(Cl)cc1Cl" sits at 30 µM or higher.
Fulfilled

Please check the record "N=c1oc2ccccc2cc1C(=O)NC12CC3CC(CC(C3)C1)C2" and state if its TGI is at or above 30 µM.
Fulfilled

Decide: is the reported value of TGI for "Nc1nc2[nH]cc(CCc3ccc(C(=O)N[C@@H](CCC(=O)O)C(=O)O)cc3)c2c(=O)[nH]1" equal to or greater than 30 µM?
Fulfilled

API: the following record is the query input.
Determine whether measured TGI meets or exceeds 30 µM for "N#CSC#CCCC#CSC#N"
Fulfilled

---

# Test system: SK-MEL-5 melanoma
# experiment: NCI tumour cell line growth inhibition, 48 h; in the data active = GI50 below about 0.43 µM; inactive = the rest
Lab note: assign the record to one of yes (active), no (inactive)

Example results:
Write down the call the test reported for this compound. Item: "COCCn1cc(-c2nc(-c3cc4cccnc4[nH]3)cs2)c2cc(OC)ccc21"
no

What did this assay record as the result for "Cc1cc2c(cc1C)[n+](=O)c(C(=O)c1ccccc1)c(C(F)F)n2[O-]" ?
no

Hi, sorry to bother you, what did the test record for "CC(C)[C@@H]1NC(=O)[C@]2(C)CSC(=N2)c2ccnc(c2)CNC(=O)C[C@@H](/C=C/CCS)OC1=O" ?
yes

What did this assay record as the result for COc1ccc(C(c2cc(OC)c(OC)c(OC)c2)n2cncn2)cc1O (stereo not drawn) ?
no

# outcome recorded in this test, key = "CC(=C(c1ccc(OCCN2CCCCC2)cc1)c1ccc(OCCN2CCCCC2)cc1)c1ccc(Cl)cc1"
no

***
For "COc1cc(/C=C2\CN(S(=O)(=O)c3ccc(C)cc3)C/C(=C\c3cc(CN4CCCC4)c(O)c(OC)c3)C2=O)cc(CN2CCCC2)c1O" , what call appears in the results of this test?
no

How was "c1ccc(-c2n(Cc3ccc4ccccc4n3)cc[n+]2Cc2ccc3ccccc3c2)cc1" classified in this test?
no

Write down the call the test reported for this compound. Item: "O=c1cc(-c2ccc3c(c2)OCO3)[nH]c2cc3c(cc12)OCO3"
no

// param item: "C=C1C(=O)O[C@H]2[C@H]1CC/C(CNC(=O)c1cc3ccccc3[nH]1)=C\CC[C@@]1(C)O[C@@H]21" ; yields the recorded call
no

Short answer needed: outcome of this test for "CCCCCCOc1ccc(/C=N/Nc2cc(C)nc3ccc(Cl)cc23)cc1" ?
no

Hi team, can someone confirm the assay call for "O=[N+]([O-])c1cc([N+](=O)[O-])c(C(F)(F)F)cc1NN=C(c1ccc(O)cc1)c1ccc(O)cc1" ?
no

For this compound, state the assay outcome: "CC(=O)N[C@@H](Cc1ccc(OP(=O)(O)O)cc1)C(=O)N[C@H]1CCC(=O)N2CCC[C@@H](C(=O)Nc3cccc4ccccc34)N2C1=O"
no

Which result was noted for this compound in the test: "CC1(C)[C@@H](NOCCCN)CC[C@]2(C)[C@H]3C(=O)C=C4[C@@H]5C[C@](C)(C(=O)O)CC[C@]5(C)CC[C@@]4(C)[C@]3(C)CC[C@@H]12"
no

Record request — test call for "COC(=O)/C=C/c1cc(OC(C)=O)c2c(c1)[C@@H](C(=O)OC)[C@H](c1ccc(OC(C)=O)c(OC(C)=O)c1)O2"
yes

For this compound, state the assay outcome: "COc1ccccc1NC(=O)c1cc2cc(Br)ccc2cc1O"
no

Please share the test call associated with "O=C(Nc1cccc(C(F)(F)F)c1)Nc1cccc(C(F)(F)F)c1" .
no

Entry "COC(=O)c1cc2oc(/C=C3/SC(=S)N(NC(C)=O)C3=O)cc2n1C" : call = ?
no

Fill in: this test's call for CN(C)CC(O)c1ccc(/C=C/c2ccc(Cl)cc2)cc1 (stereo not drawn) is ___
no
